system under test: T1, TAM-AT1-AT2 Baz2B (Homo sapiens, UniProt Q9UIF8 721-884)
T1 sequence: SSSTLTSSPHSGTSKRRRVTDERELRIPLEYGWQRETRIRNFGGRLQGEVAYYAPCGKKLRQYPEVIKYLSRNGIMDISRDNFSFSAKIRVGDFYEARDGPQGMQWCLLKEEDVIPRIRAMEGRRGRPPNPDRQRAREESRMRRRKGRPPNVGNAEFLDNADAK
method notes: MST; EMSA: 20 mM HEPES pH 7.5, 30 mM KCl, 1 mM EDTA, 10 mM (NH4)2SO4, 1 mM DTT, 4 C, 10 nM probe; MST: same plus 0.1 ug/ml BSA, 5 nM probe, 25 C; GST-AT-hook and bromodomain EMSA as in cited refs
condition info: protein: recombinant; tags: His6
endpoint: Kd (nM)
Numeric answer only, unit nM assumed.

stdin: Bench note: what Kd did ATCAGTTCTCCGGGTTGTCAGGTCGACCAGTTGTTCCTTTGAGGT (ssDNA) [45 nt ssDNA FLP015] show?
stdout: 160
